- Read-out: CD38, CD38 (gene 952)
- MEASUREMENT_DESCRIPTION: BSK_SAg_CD38: BioMAP Diversity Plus: SAg Assay for CD38 Biomarker Activity (AID 2283087)
- TEST_PARAMETERS: primary human HUVEC with PBMC; actives raise or lower the signal
Active and inactive are the calls of the source. How the source made its calls: active means hit-call score of the fitted dose curve at least 0.9, where 1 is the maximum; inactive means score below 0.9.
Your answer must be one of the following: yes (1) for active, no (0) for inactive

Would you please look over these solved cases?
[
  {
    "COMPOUND": "OC(Cc1ccccc1Cl)(Cn1[nH]cnc1=S)C1(Cl)CC1 (stereo unspecified)",
    "CAT": "yes (1)"
  },
  {
    "COMPOUND": "O=[N+]([O-])c1ccc(Nc2ccccc2)cc1",
    "CAT": "no (0)"
  },
  {
    "COMPOUND": "CC(C)O.CC(C)O.OCCN(CCO)CCO.OCCN(CCO)CCO.[Ti]",
    "CAT": "no (0)"
  },
  {
    "COMPOUND": "CC(C)N(C(=O)CCl)c1ccccc1",
    "CAT": "yes (1)"
  },
  {
    "COMPOUND": "Oc1cc(Cl)c(Cl)cc1Cl",
    "CAT": "yes (1)"
  }
]

-- ask // return assay outcome for CCOP(=O)(OCC)OC(=CCl)c1ccc(Cl)cc1Cl
-- reply no (0)

* * *

- SUBJECT_OF_TEST: Retinoic acid receptor alpha (Homo sapiens)
- MEASUREMENT_DESCRIPTION: ATG_RARa_TRANS: Attagene TRANS-FACTORIAL HepG2 Assay for human Retinoic Acid Receptor alpha (RARa) (AID 2283005)
Results filed as inconclusive are left out. The source made the active and inactive calls. How the source made its calls: active means hit-call score of the fitted dose curve at least 0.9, where 1 is the maximum; inconclusive means response in the unintended direction; inactive means score below 0.9.
Your answer must be one of the following: Yes for active, No for inactive

[
  {
    "COMPOUND": "O=[N+]([O-])c1c2ccccc2cc2ccccc12",
    "CAT": "No"
  },
  {
    "COMPOUND": "COC(F)(C(F)(F)C(F)(F)F)C(F)(C(F)(F)F)C(F)(F)F (stereo not drawn)",
    "CAT": "No"
  },
  {
    "COMPOUND": "CC(C)=CC1C(C(=O)OCc2cccc(Oc3ccccc3)c2)C1(C)C (stereo not drawn)",
    "CAT": "No"
  }
]

-- ask // return assay outcome for C=CC(F)(C(F)(F)F)C(F)(F)C(F)(F)F (stereo not drawn)
-- reply No

-- ask // return assay outcome for OC[C@@H](O)[C@H]1O[C@@H]2O[C@H](C(Cl)(Cl)Cl)O[C@@H]2[C@H]1O
-- reply No

* * *

- MEASUREMENT_DESCRIPTION: ATG_Oct_MLP_CIS: Attagene CIS-FACTORIAL HepG2 Assay for human Octamer-Binding Transcription Factor (Oct) (AID 2282993)
- TEST_PARAMETERS: HepG2 Attagene cis-factorial Oct reporter, mRNA; actives raise or lower the signal
Calls of active or inactive are those of the source. Rule for the calls: active = hit-call score of the fitted dose curve at least 0.9, where 1 is the maximum; inactive = score below 0.9.
Your answer must be one of the following: active, inactive

Would you please look over these solved cases?
[
  {
    "MOLECULE": "CCC(C)(C#N)N=NC(C)(C#N)CC (centres undefined)",
    "CAT": "inactive"
  },
  {
    "MOLECULE": "Cc1cc(C(C)(C)c2ccc(O)c(C)c2)ccc1O",
    "CAT": "active"
  },
  {
    "MOLECULE": "O=C(O)c1cc(I)cc(I)c1I",
    "CAT": "inactive"
  },
  {
    "MOLECULE": "Fc1cccc(Cl)c1CCl",
    "CAT": "inactive"
  },
  {
    "MOLECULE": "CCN(CCO)CCO",
    "CAT": "inactive"
  }
]

-- ask // return assay outcome for C=CCN=C=S
-- reply inactive

-- ask // return assay outcome for CCCCN(CCCCO)N=O
-- reply inactive

-- ask // return assay outcome for ClCc1ccccc1CCl
-- reply active

-- ask // return assay outcome for CCCSP(=S)(OCC)Oc1ccc(Cl)cc1Cl (centres undefined)
-- reply inactive

-- ask // return assay outcome for O=C1C[C@@H]2OCC=C3CN4CC[C@]56c7ccccc7N1[C@H]5[C@H]2[C@H]3C[C@H]46
-- reply inactive

-- ask // return assay outcome for O=C(CCl)Nc1ccccc1
-- reply active

Reference source: PubChem BioAssay (EPA / NIEHS)
